Data provenance is patent US20140271831A1.

# assay details: Racecadotril and degradation products over time in Acetate and Citrate at pH 3.6, 4.0, 4.5 (untitled table)
# Assay type: physicochemical
# test settings: Acetate, pH 4.0, 6 week
measurement label: Benz Alcohol (%)
Use % as the unit, but write only the number.

// Benz Alcohol lookup, molecule = CC(=O)SCC(Cc1ccccc1)C(=O)NCC(=O)OCc1ccccc1 (racemic) , result: 4.28

* * *

# assay details: Racecadotril and degradation products over time in Acetate and Citrate at pH 3.6, 4.0, 4.5 (untitled table)
# Type: physicochemical
# test settings: Acetate, pH 3.6, Initial
measurement label: Benz Alcohol (%)
Use % as the unit, but write only the number.

// Benz Alcohol lookup, compound = CC(=O)SCC(Cc1ccccc1)C(=O)NCC(=O)OCc1ccccc1 (racemic) , result: 0
